# pEC50 values compiled below
# EXPERIMENTAL_SYSTEM: T1, human activated protein C (human, UniProt P04070 43-197; P04070 212-461)
# T1 construct: also called human aPC; human APC
# TEST_METHOD_NOTES: ELISA, coated antigen
Answer as the number alone; pEC50 is minus log10 of concentration in mol/L.

BINDER: Hu1573-2 (antibody, V domains shown, Humanized IgG, human gamma 1 / kappa constant regions by vectors pCP-hCg1 and pCP-hck; also called H1573VH.1A + H1573Vk.2C) VH: EVQLVESGGGLVQPGGSLRLSCAASGFTFSNYYLNWVRQAPGKGLEWVGDIRLKSNNYEKHYAESVKGRFTISRDDSKNSLYLQMNSLKTEDTAVYYCIREGDYFDYWGQGTTVTVSS VL: DIVLTQTPLSLSVTPGQPASISCRASESVDSFGATFMHWYLQKPGQPPQLLIYLASNLESGVPDRFSGSGSRTDFTLKISRVEAEDVGVYYCQQNNEDPYTFGQGTKLEIKR
OBS_VALUE: 9.58

# input for lookup
GET /values?readout=pEC50&item= Hu1573-13 (antibody, V domains shown, Humanized IgG, human gamma 1 / kappa constant regions by vectors pCP-hCg1 and pCP-hck; also called H1573VH.1E + H1573Vk.2A) VH: EVQLVESGGGLVQPGGSLRLSCAASGFTFSNYYLNWVRQAPGKGLEWVADIRLKSNNYEKHYAESVKGRFTISRDDSKNSVYLQMNSLKTEDTAVYYCIREGDYFDYWGQGTTVTVSS VL: DIVLTQTPLSLSVTPGQPASISCRASESVDSFGATFMHWYLQKPGQPPQLLIYLASNLESGVPDRFSGSGSGTDFTLKISRVEAEDVGVYYCQQNNEDPYTFGQGTKLEIKR
9.63
